These data points were gathered from patent US12653797B2.

Assay: Measurement of the particle diameter of the acetaminophen active pharmaceutical ingredients (dry laser diffraction)
Assay type: physicochemical
Details: dispersion air pressure 0.5 bar
Text: There may be some differences between manufacturing lots. In addition, the volume-average particle diameter (MV) of the present acetaminophen active pharmaceutical ingredient can be in the range from 100 to 350 μm and may be in the range from 120 to 330 μm. There may be some differences between manufacturing lots. […]
Label Condition met when D90 < 400 μm; otherwise Condition not met.

query: Confirm or reject: D90 of CC(=O)Nc1ccc(O)cc1 [AA API e, acetaminophen] lies strictly below 400 μm
result: Condition met

query: Here's an entry: CC(=O)Nc1ccc(O)cc1 [AA API g, acetaminophen] . Is its D90 below 400 μm?
result: Condition not met

query: In plain terms, does CC(=O)Nc1ccc(O)cc1 [AA API c, acetaminophen] come in under 400 μm for D90?
result: Condition met

query: Determine if CC(=O)Nc1ccc(O)cc1 [AA API b, acetaminophen] shows D90 strictly lower than 400 μm.
result: Condition met

query: Please let me know if CC(=O)Nc1ccc(O)cc1 [AA API f, acetaminophen] shows D90 below 400 μm.
result: Condition not met

query: Lab note: D90 threshold 400 μm. Does this compound come in strictly under it? CC(=O)Nc1ccc(O)cc1 [AA API d, acetaminophen]
result: Condition not met

---

Assay: Measurement of the particle diameter of the acetaminophen active pharmaceutical ingredients (dry laser diffraction)
Assay type: physicochemical
Conditions: dispersion air pressure 0.5 bar
measurement_label: D50 (median particle diameter)
Put your answer as a value accompanied by its unit after it.

Just so you know, measured D50 (median particle diameter) for CC(=O)Nc1ccc(O)cc1 [AA API c, acetaminophen] came out at 147 μm

Memo: CC(=O)Nc1ccc(O)cc1 [AA API b, acetaminophen] , reported D50 (median particle diameter): 191 μm

Note to self: D50 (median particle diameter) recorded for CC(=O)Nc1ccc(O)cc1 [AA API e, acetaminophen] was 26 μm

Reported D50 (median particle diameter) ( CC(=O)Nc1ccc(O)cc1 [AA API d, acetaminophen] ) = 419 μm

Note to self: D50 (median particle diameter) recorded for CC(=O)Nc1ccc(O)cc1 [AA API a, acetaminophen] was 224 μm

D50 (median particle diameter) recorded for this molecule, CC(=O)Nc1ccc(O)cc1 [AA API f, acetaminophen] , is 202 μm

Lookup result for CC(=O)Nc1ccc(O)cc1 [AA API g, acetaminophen] ; measured D50 (median particle diameter): 288 μm

---

Experiment: Measurement of the particle diameter of the acetaminophen active pharmaceutical ingredients (dry laser diffraction)
Type: physicochemical
Conditions: dispersion air pressure 0.5 bar
So basically: is MV (volume-average particle diameter) under 200 μm? Then Fulfilled. Not under? Then Not fulfilled.

query: Consider the molecule CC(=O)Nc1ccc(O)cc1 [AA API d, acetaminophen] . Is its MV (volume-average particle diameter) strictly less than 200 μm?
result: Not fulfilled

query: Please state whether MV (volume-average particle diameter) is below 200 μm for CC(=O)Nc1ccc(O)cc1 [AA API a, acetaminophen]
result: Not fulfilled

query: Is MV (volume-average particle diameter) strictly under 200 μm for the entry CC(=O)Nc1ccc(O)cc1 [AA API e, acetaminophen] ?
result: Fulfilled

query: Input CC(=O)Nc1ccc(O)cc1 [AA API f, acetaminophen] ; condition: MV (volume-average particle diameter) strictly below 200 μm. Does it hold?
result: Not fulfilled

query: Given the entry CC(=O)Nc1ccc(O)cc1 [AA API g, acetaminophen] , would its reported MV (volume-average particle diameter) be below 200 μm?
result: Not fulfilled

query: Quick check: MV (volume-average particle diameter) of CC(=O)Nc1ccc(O)cc1 [AA API c, acetaminophen] under 200 μm?
result: Fulfilled

---

Assay: Measurement of the particle diameter of the acetaminophen active pharmaceutical ingredients (dry laser diffraction)
Assay type: physicochemical
Details: dispersion air pressure 0.5 bar
measurement_label: D10 (μm)
Numeric only. Scale: μm

D10 for CC(=O)Nc1ccc(O)cc1 [AA API c, acetaminophen] is 27

Documented D10 of CC(=O)Nc1ccc(O)cc1 [AA API d, acetaminophen] : 75

The compound listed as CC(=O)Nc1ccc(O)cc1 [AA API b, acetaminophen] has a reported D10 of 62

CC(=O)Nc1ccc(O)cc1 [AA API a, acetaminophen] has a reported D10 of 73

Documented D10 of CC(=O)Nc1ccc(O)cc1 [AA API g, acetaminophen] : 125

# D10 of CC(=O)Nc1ccc(O)cc1 [AA API e, acetaminophen] = 5.7

Entry CC(=O)Nc1ccc(O)cc1 [AA API f, acetaminophen] — recorded D10 = 42
